- test.summary: DSSTox (CPDBAS) Carcinogenic Potency Database Summary SingleCellCall Results
- assay.setup: animal chronic carcinogenicity bioassays, CPDB summary call
Activity calls are given as the source filed them.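 Rule for the calls: active = a tumor-causing dose value with its tumor site reported for any sex and species group of a rodent or other animal cancer study; inconclusive = only studies judged inadequate by the national testing program; inactive = tested in at least one study, none positive.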
reported.endpoint: outcome

Below are worked cases with known answers.
# compound, outcome
data = [
    ("CCCCN(CCCC)C(=S)[S-].CCCCN(CCCC)C(=S)[S-].[Ni+2]", "inactive; active"),
    ("CCCc1c(OCCCCc2nn[nH]n2)ccc(C(C)=O)c1O", "active"),
    ("c1cc(OCC2CO2)cc(OCC2CO2)c1 (configuration not stated)", "active"),
    ("CCN(CC)C(=O)Nc1ccc(OCC(O)CNC(C)(C)C)c(C(C)=O)c1 (configuration not stated)", "inactive; active"),
]

outcome lookup needed for O=C(O)CCCC/C=C(\c1ccccc1)c1cccnc1 , thanks. inactive; active

Next compound up: O=C/C=C/O active
